Ref: patent US10669269B2

Biological target: PDGFR beta (Homo sapiens)
Construct: endogenous in cells; host or cells: HS27 human fibroblast cell line
Sequence (P09619 33-1106): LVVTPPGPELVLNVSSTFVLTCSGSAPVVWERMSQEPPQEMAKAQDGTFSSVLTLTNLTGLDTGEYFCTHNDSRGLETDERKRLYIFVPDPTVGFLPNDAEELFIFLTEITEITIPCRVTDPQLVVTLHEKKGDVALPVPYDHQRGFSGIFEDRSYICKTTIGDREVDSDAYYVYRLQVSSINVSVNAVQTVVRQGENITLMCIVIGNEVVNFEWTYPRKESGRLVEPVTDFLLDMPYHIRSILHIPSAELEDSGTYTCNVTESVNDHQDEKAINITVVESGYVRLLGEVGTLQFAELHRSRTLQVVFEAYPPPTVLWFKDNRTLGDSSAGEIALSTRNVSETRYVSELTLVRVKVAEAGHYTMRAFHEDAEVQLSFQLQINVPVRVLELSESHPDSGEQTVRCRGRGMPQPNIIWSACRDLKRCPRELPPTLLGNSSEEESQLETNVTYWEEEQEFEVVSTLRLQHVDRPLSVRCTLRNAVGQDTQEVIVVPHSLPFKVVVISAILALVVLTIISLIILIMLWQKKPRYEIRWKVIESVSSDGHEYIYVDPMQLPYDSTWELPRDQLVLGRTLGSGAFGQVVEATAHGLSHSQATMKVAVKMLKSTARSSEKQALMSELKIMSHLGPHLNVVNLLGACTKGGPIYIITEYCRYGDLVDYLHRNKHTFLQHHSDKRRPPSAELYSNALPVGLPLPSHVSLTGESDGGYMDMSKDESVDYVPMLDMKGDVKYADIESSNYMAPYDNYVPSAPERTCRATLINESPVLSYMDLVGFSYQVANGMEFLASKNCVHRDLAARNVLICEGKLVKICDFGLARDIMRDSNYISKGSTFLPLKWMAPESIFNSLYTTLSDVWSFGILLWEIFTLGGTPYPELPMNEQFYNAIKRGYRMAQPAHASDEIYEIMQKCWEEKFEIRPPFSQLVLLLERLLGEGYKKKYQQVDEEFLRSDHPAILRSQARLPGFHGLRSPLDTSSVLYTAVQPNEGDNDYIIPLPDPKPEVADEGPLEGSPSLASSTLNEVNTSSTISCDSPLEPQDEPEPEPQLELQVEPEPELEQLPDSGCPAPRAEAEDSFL
Test: Phospho PDGFR LICOR Cell Assay (Example B)
Format: cell-based
Conditions: averaged IC50; PDGFR beta phosphorylation in HS27 human fibroblast cell line, PDGF-BB stimulation 10 minutes, normalized to total ERK
MEASURED PROPERTY: IC50 (µM)
Report the figure in µM without appending any unit label.

- COMPOUND: "COCCOc1ccn2c(C(=O)Nc3cccc4c3cnn4Cc3cccc(Cl)c3)cnc2c1"
  IC50 / µM: 0.0016
- COMPOUND: "COCCOc1ccn2c(C(=O)Nc3cccc4c3cnn4CC3CCCCC3)cnc2c1"
  IC50 / µM: 0.0068
- COMPOUND: "Cc1cccc(CCn2nc(C)c3c(NC(=O)c4cnc5cc(OCCN6CCN(C)[C@@H](C)C6)ccn45)cccc32)n1"
  IC50 / µM: 4.8

# evaluate next
Look up IC50 for this compound: COCCOc1ccn2c(C(=O)Nc3cccc4c3c(C)nn4Cc3ccccc3)cnc2c1
0.174
